Biological target: GABA-A receptor; anion channel
Assay: Effective concentration for stimulation of [3H]diazepam binding to rat cortical membranes
property.label: EC50 (µM)

                                   compound  property_label  units_symbol  experimental_value
0                           O=C(O)C1=CCNCC1            EC50            µM                 3.1
1  NC1=NC(CC(=O)O)CS1 (configuration not stated)            EC50            µM                 3.4
